The following binders are shown together with reported Kd values.
# MEASURED_ON: T1, EsCas13d, nuclease-dead (Eubacterium siraeum, UniProt B0MS50, R295A;H300A;R849A;H854A)
# T1 sequence: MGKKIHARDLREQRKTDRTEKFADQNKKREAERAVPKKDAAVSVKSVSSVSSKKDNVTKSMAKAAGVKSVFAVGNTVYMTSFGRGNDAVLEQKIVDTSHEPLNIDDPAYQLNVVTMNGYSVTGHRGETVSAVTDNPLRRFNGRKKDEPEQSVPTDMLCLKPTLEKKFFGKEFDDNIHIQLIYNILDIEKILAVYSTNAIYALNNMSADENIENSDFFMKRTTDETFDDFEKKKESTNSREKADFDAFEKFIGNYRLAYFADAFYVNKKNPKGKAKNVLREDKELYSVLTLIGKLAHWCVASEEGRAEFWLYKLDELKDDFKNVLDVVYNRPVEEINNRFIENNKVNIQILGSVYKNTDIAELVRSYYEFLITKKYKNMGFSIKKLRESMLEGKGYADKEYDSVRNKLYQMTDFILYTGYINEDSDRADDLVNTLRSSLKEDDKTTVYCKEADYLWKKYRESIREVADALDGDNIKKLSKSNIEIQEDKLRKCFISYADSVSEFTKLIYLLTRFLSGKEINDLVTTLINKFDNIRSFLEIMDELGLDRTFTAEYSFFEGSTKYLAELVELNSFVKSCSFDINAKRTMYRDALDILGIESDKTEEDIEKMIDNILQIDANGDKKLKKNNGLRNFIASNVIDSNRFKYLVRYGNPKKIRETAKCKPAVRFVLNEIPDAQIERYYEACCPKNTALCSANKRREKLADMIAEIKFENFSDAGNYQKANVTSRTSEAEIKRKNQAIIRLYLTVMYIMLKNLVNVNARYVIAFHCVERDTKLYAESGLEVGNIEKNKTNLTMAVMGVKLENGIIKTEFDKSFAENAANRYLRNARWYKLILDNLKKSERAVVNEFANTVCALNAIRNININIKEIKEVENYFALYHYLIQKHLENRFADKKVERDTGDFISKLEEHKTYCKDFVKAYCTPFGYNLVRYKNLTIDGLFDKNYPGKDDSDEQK
# METHOD: crRNA (strand 1, pre-loaded); Mg2+; 40 mM Tris-HCl pH 7.5, 150 mM NaCl, 6 mM MgCl2, 1 mM DTT, 0.1% Tween-20, 0.2 mg/ml BSA; 25 C; 10 min per concentration, then washed
# EXPERIMENTAL_CONTEXT: tags: His6-TwinStrep-SUMO cleaved; N-terminal SNAP kept (SNAP-Surface 488); label: 3' end held by stalled T7 RNA polymerase
Report as a plain number; the unit nM is understood.

Please give measured Kd of the following entry: target 1 insG 3' of 10,insU 3' of 2 (mixed) RNA 1: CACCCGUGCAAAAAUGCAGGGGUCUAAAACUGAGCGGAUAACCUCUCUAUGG RNA 2: GGGAAUGGAUCCACAUCUACGAAUUCGUACCAUAGAGAGGUUGAUCCGCUCUACCGAGAUCGGAAGAGCACACGU
24.7

Recall and state the measured Kd for target 1 G12C,C22U (mixed) RNA 1: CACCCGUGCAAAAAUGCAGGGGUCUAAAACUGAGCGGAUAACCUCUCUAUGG RNA 2: GGGAAUGGAUCCACAUCUACGAAUUCGUAUCAUAGAGAGCUUAUCCGCUCACCGAGAUCGGAAGAGCACACGU .
23.5

Note down Kd recorded for target 2 MT 5'PFS AGA 3'PFS AGA (mixed) RNA 1: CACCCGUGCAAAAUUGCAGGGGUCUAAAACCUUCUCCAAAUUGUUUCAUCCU RNA 2: GGGAAUGGAUCCACAUCUACGAAUUCAGAAGGAUGAAACAAUUUGGAGAAGAGAAGAUCGGAAGAGCACACGU
4.9
